- Test system: HCT-116
- ASSAY: Cell viability assay, colon cancer cell line HCT-116
- Format: cell-based
- CONDITION CONTEXT: HCT-116 colon cancer cell line
- Experimental: Antitumor activity of the compounds and doxorubicin as a positive control was assessed by using the CellTiter-Blue Cell Viability Assay (Promega, #G8082) or CellTiter-Glow® Luminescent Cell Viability assay (Promega # G7572) according to the manufacturer's instructions. The compounds were tested at 5 or 6 concentrations in half-log increments (highest concentration 30 μM-100 μM) in duplicate or triplicate well conditions. […]
MEASURED QUANTITY: IC50

{"columns": ["MOLECULE", "MEASURED TARGET", "ASSAY RESULT"],
 "data": [
  ["O=c1cc(-c2ccc(CCCN3CCCCC3)cc2)oc2c(O)c(O)ccc12 [SND172]", "HCT-116", "11.4 µM"]
]}
